- experiment.notes: protease stability score; higher = more stable; yeast display proteolysis, trypsin and chymotrypsin;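 also: relative to predicted unfolded state with 0 unfolded-like and 1 meaning tenfold more protease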
Classification field: enter y for protease stability score values not below 1, n for values below it.

# check: protease stability score of DEEERMAHEVAEILLRSLHTGDWRRDMDLLDPHVRFDFNGVHLHGREEWLRHLHEFWRKFGVEFFDLHEDNISIQGDKAIMDGQIEFNGRRTKQKLEITVIDGRVKEVRVEIH is greater than or equal to 1
n

Has DHMERLLKHVARLFIHALHTGDESILTDLLDPNVRVHIHIGDKEIRLHGREHVRHYLEHELTHWRTEFHLTHFDIVGNKFENHTNVIIRIDGVEIRLDRRHEVVLYDGKIEEVIVRVE a recorded protease stability score greater than or equal to 1?
y

State whether the measured protease stability score reaches 1, counting equality as reaching it, for SEEEKHTREMSEMLLRTWETGDEEEYEHLADPHVRIDFNGKHYHGREEAVKLLRWLIEELGADHRTIHREEVQGEKVRLFTRVNVNGRDLRLIIRFVVINGRLTIMKIEIHTE
y

Hi team, for SEDEEFARTAVELVSEAWETGDENLEEHLLDPNVKIDIGDKELHGMESSIKYWREIRIHLLHVEIHSVEFFDGRVILDTRFKFDGDFDGKRIERSSTMIWIAHKVDGRWRVHHMENR , is the recorded protease stability score at or above 1?
y

Record DHEEEKAVEIARLLLEAELTGDWKTFSHLADPHTRWIERIDGREDSRHGMEEVVRIIIERLKEIRMEVRIRRKRVVGDKVELDGELIMRINGVEIRVEVRIIIIIVGDKVKFIEITIH ; criterion: protease stability score no lower than 1. Met?
n

Reported protease stability score reaches at least 1 for DEDERRDRELAEHFEHLWMTGDEETLVENLDPNARVKVGDKENHGREAFILFLREFGIDHFEFRDSKIVNGQVHIDGEIDWNGRRTRVEHIVKIVDGKVKHWEIRIK ?
y

Exam item: decide whether the reported protease stability score for DDKDELTRTALEIFEYLEITGDWHVVSREADPHVRIVIGDKHLHGMEIFMDLTEELGVDHSSVHSLRSQGDKIDIDIELHQGEKSFRTKVTAEKVDGRWLIKRVLFR is at least 1.
y

Is it the case that DEDEQFWRNLAEEFMRALETGDEERMQELFDPHARLDIDGRRFHGWDTVIKFFEDLLKHLGITRIEFVYRRVRVINGVFHIEGEINVDGQTRDSRIENIVVDGKSQELRFNHR has protease stability score reaching or exceeding 1?
n

Given DEDEHLLEMALKYFLRHWKTGDEEMIMHLADPNVRLVVGDKKHHGREELFRFVHEMGANHIEVRDSELQGNKLILHLEVNVGDKRHDIKVVIEKIDGRWHLHSLEHR , state whether its protease stability score is at least 1.
y

protease stability score >= 1 for SEEEENARRAAEHHEHVLKTGDEDHMTRMFDPNVRVRQGDKEIHGREEFRRLFHELVRRYPNLKFELEDVDVFNGKVVVHMIFWVDGRTIEIHWFIDKFDGQWVVEEVEFR ?
y

====

- experiment.notes: protease stability score; higher = more stable; yeast display proteolysis, trypsin and chymotrypsin;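 also: relative to predicted unfolded state with 0 unfolded-like and 1 meaning tenfold more protease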
Classify by measured protease stability score: Condition met if it is equal to or exceeds 1, Condition not met if it is smaller.

State whether the measured protease stability score reaches 1, counting equality as reaching it, for DEAQEIVEFVFKILAEFQETGDEDSLKHLLDPNVRILQGNKELHGRDQNIKRLREELDRFGVDKFRVELRLEHVTIIDGRLHLDMRLNLDVNGVEIRLEVHFVLIKVDGQWSIHEVRFH
Condition met

Assess whether reported protease stability score for DDRSEHAIHAFYEWWERFLTGDEKRLYELADPNTRLHVNGQRIHGMEEIMERILDLLKRVKNMRVDFDVRDVELQGDKIILRIEIILKYNGQKVRIDVHIISRKINGRWFLEQEREE sits at 1 or higher.
Condition not met

Test whether the sequence NEDEESAERAVHLLRELIYTGDEDRMLKYADPNVKIVFNGVEMHGMDTFLRVFHRIKNLTIRRIHIDHIHLQGDKIELNVRMDTEFNGRHHDDSIHIRTLKVDGVWINHRTEYV records protease stability score of 1 or higher.
Condition met

Is the recorded value of protease stability score equal to or greater than 1 for this sequence? DEDTKRVEELMELWIEIWRTGDFKMLHHLLDPNVLLHVDIGDKHINVHGREEFTRFLEEELRKVKNAREEINDEKLVGDKVILDYSIHVNGRTLRVHLEIILIDGRMKVSRVKVK
Condition met

API: above_or_equal(metric=protease stability score, cutoff=1) for item SEEKDDANRHLEIFFHYFITGDESSMLREADPHVQVEQGDKHIHGMEEWVTEWSKREKELGAKHIKLEDKRIHLINGRVHLILDLIIEVGDKRRRMILIVTIDKINGRWVMSQMKLEVR
Condition met

I'd appreciate it if you could say whether SEEDRYDKKMLERLNEAEHTGDWRLFLRQADPDPRTVIGDKELHGWEILEEFLLKIHEQYKGMRFEYRDIDVQGDKIRIEYDLFINGKFTETILIADKVNGKWIIKSHELR has protease stability score at least equal to 1.
Condition not met

API: above_or_equal(metric=protease stability score, cutoff=1) for item DETEDTSRHLLELFAHALRTGDEESSDRLLDPHVRIDINGKELIGRERFRELWEEMRIEWVKIRDVSIINGQVHVNGEMLMVYDGRTYTIETRIIILKVDGRWVIEHMKIG
Condition met

Is reported protease stability score greater than or equal to 1 here: DEHQERIEEVLRDILEVLETGDWRKWHRLMDPHVLLIIFINGRKLSFHGMETVISHLQHEWRRVKGLQFELKHVELQGDYIHIDGHVRFNGQQTRIEIRIDIVDGKIHQLEFKFD
Condition met

Reported protease stability score reaches at least 1 for DHNKEAADHILHLLRQSWRTGDEEIFQRLIDPNVKLQVGDKQFHGREEVTRWIQLYLLRFKGITIHDIEVKEVRTYDGRVEAREIHHNHVNGQDHSLDVHLYIVKVNGQWRLESMHVN ?
Condition met

I'd appreciate it if you could say whether TEDEKIAKDTLEEITEALATGDEDQLNRLMDPNVKIFFNGQEIHGRHDSVKYWREIRIRDSHIIIRHVDIQGDKIRLDGEYQLRGEIDGQEIERTMHVRLFMHKVNGRWIVRRQVWG has protease stability score at least equal to 1.
Condition met

I'd appreciate it if you could say whether NEEEKLSEEWSDHLLHNLITGDEEMLKRFMDPHTWAESEVDGQDEKYHGREQALHMVYRVIHRLGFNHFHIHRHRVIGDKIHVELRIVVGDKEVDAHFETIIINGKVHRIRIHVTKR has protease stability score at least equal to 1.
Condition not met

====

- experiment.notes: protease stability score; higher = more stable; yeast display proteolysis, trypsin and chymotrypsin;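 also: relative to predicted unfolded state with 0 unfolded-like and 1 meaning tenfold more protease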
observation.type: protease stability score

Bench note: what protease stability score did SELDHAAEHLYRLFYHLERTGDEETLMDNMDPNARNEQGEFEYHGREFIEWVSEHLGINVIRVKRVDLRVINGRMILDIDYRVHIGDKTIQRHIHVVINKVNGKWIVEKLRIEWR show?
0.79

Any idea what its protease stability score is? The sequence is DEHDKFVEEMARRHIRNLVTGDWEEQSRLMDPHVRIEIDINGRKREYHGREDWKYWLDELKRQFDHYEVRLRDFRIQGEYALFRLEESYIIGDKVIEQETELHIDVFNGRIRRVSFSVK
0.956

Which value of protease stability score has been reported for DENTENEHNIAEVIIEAFETGDWEMLWRMADPNTLLEIIIGDKRMEIHGMHIFVKYWVEFQDRFKNVRISLKSYHVYDGRIELHMNLNFNGRRVEEEVLIYFINGRVKRIHIRHH in the records?
2.8

What value of protease stability score has been recorded for this entry: DEKDRISKKIVELWMRALITGDEEEMDRMADPDVRIKYGDKVSHGMEEARETWEHIRWRDIRLDHVDSYNGRIRIDGTVHIEINGREDTTRVEIILHVIDGRIKEIRVIIR
1.3

Fill in the blank: the reported protease stability score of EEEQEDSEWATKLFIEVLETGDEHTSEHLADPDTRVEFNGKILHGREEWNKIVRKVKNARIHFDHIRVQGDKINVDTTVEVDGKRMKFHIISRKFNGVWFLQSIHIK is ____.
2.07

May I ask what protease stability score has been recorded for DEREKEAKTLHQEWFRALQTGNEKRLHELLDPHVRSDVNGVKLHGRHALIKFLVKWLRQIDHNERLEIHDIRFQGDKSEEDVRVVVHIDGRRIDYETHVHLDIYDGVIREVEIDIK ?
1.18

protease stability score lookup needed for DEDERTMRIAFEMFKHNLETGDEDVIRRFVDPHVKIDIDGVHLHGWEVMYERIMRFDHVDIRLRDIRTFNGRAEIDGEILVEINGVSIEKRLIIHSEKIDGRWILRSHRII , thanks.
0.89

Param item = DEREEEMQRIMEDFIRAWSTGDEKRLKELIDPRDRMIINGKERHGMEEWKTLWETLGINYIDIEHVHLQGEKARIHGTSKFNGRHHEVRIEIRVVDGRFTEVHVDII ; retrieve measured protease stability score.
1.78

If you can, please state the reported protease stability score value of SEDHENIERFLTHFVTAIETGNFNELEKLLDPNAQIEINGQRIHGREWFVDHIRRIKNIRFEIHVEDSEFYNGKAHIRTRLILKYGDKEREHDVVLVIRKINGRWVIEWIIIE .
1.54

Entry under review: SEEEEELKKFLDIFLRALRTGDFDESLRLMDPRYRSIVGDKRHIGMENLYRWLTEMRIERVHFELDSFRIQGNKLEIDIRNDVDGQIDGKQFRIEFEVHIHMEKYNGKWVVHVLEIR . Reported protease stability score?
0.932

What does the data say about its protease stability score? Entry: SEHLEIAMRVIREDLIKSSTGDWRRLEDYLDPHVKIQVGNKEIVGWEEVEKNMEHLRIEFRDYRIKDARNIDGKINVHGEIVEIIRVGNKTYQMRTEVDFIATKVDGQWTIHSIRFN
1.15
